Data origin, for the record: patent US9771333B2

- tested on: human Tyro3 (Homo sapiens)
- Construct: GST (N)
- Sequence (Q06418 455-890 limits assumed): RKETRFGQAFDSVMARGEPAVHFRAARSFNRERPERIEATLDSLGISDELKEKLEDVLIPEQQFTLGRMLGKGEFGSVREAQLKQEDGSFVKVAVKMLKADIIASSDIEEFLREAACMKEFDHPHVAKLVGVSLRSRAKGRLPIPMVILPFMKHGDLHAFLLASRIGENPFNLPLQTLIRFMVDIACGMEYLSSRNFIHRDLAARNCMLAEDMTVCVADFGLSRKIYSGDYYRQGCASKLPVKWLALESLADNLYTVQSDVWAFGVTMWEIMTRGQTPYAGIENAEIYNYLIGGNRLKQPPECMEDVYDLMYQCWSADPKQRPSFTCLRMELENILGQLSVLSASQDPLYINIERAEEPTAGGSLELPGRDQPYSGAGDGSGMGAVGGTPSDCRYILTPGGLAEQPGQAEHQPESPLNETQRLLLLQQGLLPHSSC
- procedure summary: Kinase enzymatic activity assay (33P-radiolabeled phosphate transfer), Tyro3
- condition notes: recombinant human Tyro3 (455-end), poly(4:1 glu:tyr) substrate, 30 minutes
experimental readout: IC50

Study these solved cases before continuing.
CN1CCN(CCOc2cc(OC3CCOCC3)c3c(Sc4ccc(F)cc4Cl)ncnc3c2)CC1 [Example 3.3]	< 500 nM
CN1CCC(COc2cc(OC3CCOCC3)c3c(Nc4ccon4)ncnc3c2)CC1 [Example 2.61]	1000 to 10000 nM
CN(C)CCOCCOc1cc(OC2CCOCC2)c2c(Oc3ccc(F)cc3Cl)ncnc2c1 [Example 2.2]	< 500 nM
Fc1ccc(Oc2ncnc3cc(OCCCN4CCOCC4)cc(OC4CCOCC4)c23)c(Cl)c1 [Example 2.5]	< 500 nM
CCN(CC)CCNc1cc(OC2CCOCC2)c2c(Nc3nc(C(F)(F)F)cs3)ncnc2c1 [Example 7]	> 10000 nM
COc1cc(OCCCN2CCOCC2)cc2ncnc(Oc3cccc(CC(=O)NCc4ccccc4)c3)c12 [Example 2.29]	1000 to 10000 nM

// field: IC50; key: COC(=O)c1cccc(Oc2ncnc3cc(OCCN4CCN(C)CC4)cc(OC4CCOCC4)c23)c1 [Example 2.30] ; value = 1000 to 10000 nM

Notebook: Fc1ccc(Oc2ncnc3cc(OCCN4CCCCC4)cc(OC4CCOCC4)c23)c(Cl)c1 [Example 1] , IC50 read as < 500 nM

Value of IC50 reported for the compound Cc1csc(Sc2ncnc3cc(OCC4CCN(C)CC4)cc(OC4CCOCC4)c23)n1 [Example 2.51] is < 500 nM

Lookup result for FC(F)(F)c1csc(Nc2ncnc3cc(OCCCN4CCOCC4)cc(OC4CCOCC4)c23)n1 [Example 2.18] ; measured IC50: > 10000 nM

----------
- tested on: human Axl (Homo sapiens, UniProt P30530)
- Construct: GST (N)
- Sequence (P30530 473-894 limits assumed): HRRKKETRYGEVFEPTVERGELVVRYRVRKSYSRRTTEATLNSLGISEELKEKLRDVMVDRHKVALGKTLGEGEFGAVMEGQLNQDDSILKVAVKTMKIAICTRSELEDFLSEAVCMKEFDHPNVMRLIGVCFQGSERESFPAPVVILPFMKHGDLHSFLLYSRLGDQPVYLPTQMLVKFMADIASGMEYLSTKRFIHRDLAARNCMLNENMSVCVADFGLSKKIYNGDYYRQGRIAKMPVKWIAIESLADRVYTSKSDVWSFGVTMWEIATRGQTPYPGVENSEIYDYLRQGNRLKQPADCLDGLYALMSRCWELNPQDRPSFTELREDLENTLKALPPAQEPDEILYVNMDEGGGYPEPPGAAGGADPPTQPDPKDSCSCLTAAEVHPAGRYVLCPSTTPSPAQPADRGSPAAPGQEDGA
- procedure summary: Kinase enzymatic activity assay (33P-radiolabeled phosphate transfer), Axl
- condition notes: recombinant human Axl (473-end), poly(4:1 glu:tyr) substrate, 30 minutes
// values below are reported IC50

Entry Cc1nc(Sc2ncnc3cc(OCC4CCN(C)CC4)cc(OC4CCOCC4)c23)oc1C , IC50 reported as > 10 µM

Documented IC50 of COc1cc(OCC2CCN(C)CC2)cc2ncnc(Oc3ccc(F)cc3Cl)c12 : 1 to 10 µM

For record CN(C)CCN1CCN(c2cc(OC3CCOCC3)c3c(Nc4nc(C(F)(F)F)cs4)ncnc3c2)CC1 the listed IC50 is < 0.5 µM

Notebook: CC1(C)OC[C@H](COc2cc(OC3CCOCC3)c3c(Oc4ccc(F)cc4Cl)ncnc3c2)O1 , IC50 read as 1 to 10 µM

Notebook: COc1cc(OCCCN2CCOCC2)cc2ncnc(Oc3cccc(C(=O)NCc4ccccc4)c3)c12 , IC50 read as > 10 µM

GET /value?item= COc1cc(N2CCN(C)CC2)cc2ncnc(Nc3nc(C(F)(F)F)cs3)c12 &field=IC50 returns 0.5 to 1 µM

// IC50 lookup, molecule = Fc1ccc(Oc2ncnc3cc(OCCCN4CCOCC4)cc(N4CCOCC4)c23)c(Cl)c1 , result: > 10 µM

molecule CN1CCC(COc2cc(OC3CCOCC3)c3c(Oc4ccc(F)cc4Cl)ncnc3c2)CC1 , IC50 observed: 0.5 to 1 µM

IC50 reported for this molecule COCCN1CCN(c2cc(OC3CCOCC3)c3c(Nc4nc(C(F)(F)F)cs4)ncnc3c2)CC1 : 1 to 10 µM

For record Cc1csc(Nc2ncnc3cc(OCC4CCN(C)CC4)cc(OC4CCOCC4)c23)n1 the listed IC50 is < 0.5 µM

IC50 for CN1CCC(COc2cc(OC3CCOCC3)c3c(Nc4nncs4)ncnc3c2)CC1 is < 0.5 µM
